# system-name: IκBα ubiquitinating enzyme (SCF complex: ROC1, Cullin1, Skp1, His-TrCP1; with E1, UbcH5b) (Homo sapiens, UniProt P62877+P63208+Q13616+Q9Y297)
# Construct: His (polyhistidine); made in house; host or cells: insect cells (baculovirus) for the SCF complex and His-E1; E. coli for His-UBCH5b
# Sequence (Q9Y297 whole entry): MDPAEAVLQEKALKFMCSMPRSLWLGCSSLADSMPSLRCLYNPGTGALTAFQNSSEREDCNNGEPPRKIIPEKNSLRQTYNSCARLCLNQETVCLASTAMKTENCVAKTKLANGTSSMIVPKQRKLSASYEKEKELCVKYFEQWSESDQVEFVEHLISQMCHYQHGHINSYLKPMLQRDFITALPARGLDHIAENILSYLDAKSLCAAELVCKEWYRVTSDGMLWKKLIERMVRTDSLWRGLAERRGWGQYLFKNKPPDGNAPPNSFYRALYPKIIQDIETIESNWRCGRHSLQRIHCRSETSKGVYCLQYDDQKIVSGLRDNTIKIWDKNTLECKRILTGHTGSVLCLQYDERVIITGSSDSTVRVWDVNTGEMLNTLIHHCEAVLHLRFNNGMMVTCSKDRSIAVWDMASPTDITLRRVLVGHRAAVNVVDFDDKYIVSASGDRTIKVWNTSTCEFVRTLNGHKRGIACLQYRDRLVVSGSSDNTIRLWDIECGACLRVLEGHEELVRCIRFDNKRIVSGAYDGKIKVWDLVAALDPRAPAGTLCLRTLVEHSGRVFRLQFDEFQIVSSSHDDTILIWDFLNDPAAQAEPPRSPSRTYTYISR
# Sequence (Q13616 whole entry): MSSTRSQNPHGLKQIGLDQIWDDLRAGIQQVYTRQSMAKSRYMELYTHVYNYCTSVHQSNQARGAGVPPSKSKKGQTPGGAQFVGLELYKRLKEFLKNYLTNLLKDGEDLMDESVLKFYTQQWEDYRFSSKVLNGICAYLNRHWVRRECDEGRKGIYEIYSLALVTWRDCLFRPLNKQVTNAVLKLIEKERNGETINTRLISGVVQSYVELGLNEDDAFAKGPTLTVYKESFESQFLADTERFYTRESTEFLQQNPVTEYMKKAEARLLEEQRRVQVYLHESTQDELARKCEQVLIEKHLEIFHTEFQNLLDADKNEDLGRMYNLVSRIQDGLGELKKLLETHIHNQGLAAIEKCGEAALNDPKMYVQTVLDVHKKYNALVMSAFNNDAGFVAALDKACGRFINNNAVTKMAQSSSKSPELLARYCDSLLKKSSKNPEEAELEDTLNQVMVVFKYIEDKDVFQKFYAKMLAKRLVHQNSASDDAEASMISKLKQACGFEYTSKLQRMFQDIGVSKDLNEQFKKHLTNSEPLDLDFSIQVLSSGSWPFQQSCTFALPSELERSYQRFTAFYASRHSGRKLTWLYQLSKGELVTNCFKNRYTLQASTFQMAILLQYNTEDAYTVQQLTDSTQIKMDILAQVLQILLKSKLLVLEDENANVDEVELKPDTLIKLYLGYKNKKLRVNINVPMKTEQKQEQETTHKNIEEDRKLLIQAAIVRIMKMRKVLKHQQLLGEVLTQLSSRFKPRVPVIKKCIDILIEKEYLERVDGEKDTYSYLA
# Sequence (P63208 whole entry): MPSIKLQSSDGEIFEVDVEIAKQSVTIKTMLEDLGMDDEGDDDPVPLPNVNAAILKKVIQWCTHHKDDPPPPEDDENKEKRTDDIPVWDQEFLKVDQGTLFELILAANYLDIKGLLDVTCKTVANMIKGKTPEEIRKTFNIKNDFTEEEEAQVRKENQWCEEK
# Sequence (P62877 whole entry): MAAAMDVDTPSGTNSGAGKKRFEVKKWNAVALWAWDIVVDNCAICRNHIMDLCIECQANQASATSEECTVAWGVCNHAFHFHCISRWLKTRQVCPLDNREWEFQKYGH
# experiment-description: Measurement of ubiquitinating enzyme activity (IκBα ubiquitination, time-resolved fluorescence with Eu(K)-labeled ubiquitin and XL665-labeled anti-GST antibody)
# Type: biochemical
# test-parameters: enzyme activity inhibition test, method (1), Table 5; read-out: EVALUATION
pIC50: −log10 of the molar value.
attribute-measured: pIC50

Field: example entries. Status: answers known.
>>> df
                                   compound  attribute_measured        result
0  CC1=NN(c2ccc(S(N)(=O)=O)cc2)C(=O)C1=Cc1cccc2cc[nH]c12 [Compound 151]               pIC50        > 5.00
1  CC1=NN(c2ccc(C(=O)O)cc2)C(=O)/C1=C\c1ccc(N2CCN(c3ccc(F)cc3)CC2)cc1 [Compound 448]               pIC50        > 5.00
2  COCC1=NN(c2cccc(C(=O)O)c2)C(=O)/C1=C\c1ccc(N2CCCC2)cc1 [Compound 471]               pIC50  4.70 to 5.00
3  CC1=NN(c2ccc(C(=O)O)cc2)C(=O)/C1=C\c1ccc(CO)o1 [Compound 255]               pIC50        > 5.00
4  CC1=NN(c2ccc(C(=O)O)cc2)C(=O)/C1=C\c1ccc2c(ccn2Cc2c(C)noc2C)c1 [Compound 497]               pIC50        > 5.00

May I ask what pIC50 has been recorded for CC1=NN(c2cccc(C(=O)O)c2)C(=O)/C1=C\c1ccc(N2CCCC2)cc1 [Compound 472] ?
4.70 to 5.00

For CC1=NN(c2ccc(S(N)(=O)=O)cc2)C(=O)/C1=C\c1ccc(F)cc1 [Compound 118] , what is its reported pIC50?
4.70 to 5.00

Reported pIC50 for CCCCC1=NN(c2ccccc2)C(=O)/C1=C\c1ccc(N2CCN(C(=O)OC)CC2)cc1 [Compound 54] : what is it?
4.70 to 5.00

Measured values drawn from patent EP1900728A1 for this set.
